biological target: AMPK; test: AMPK activation, enzyme-linked immunosorbent assay; format: biochemical; conditions: Table 9, compounds of Table 2
measurement_name: EC50

> print(dat)
                                   compound  recorded.measurement
1  Cn1cnc(CN2CCC(NC(=O)c3ccc4[nH]c5c(c4c3)CN(Cc3ccc(C(F)(F)F)cc3)CC5)CC2)c1 [Compound 2-53]           10 to 50 µM
2  N#Cc1cccc(S(=O)(=O)N2CCC(NC(=O)c3ccc4[nH]c5c(c4c3)CN(Cc3ccc(C(F)(F)F)cc3)CC5)CC2)c1 [Compound 2-29]             1 to 5 µM
3  CC(C)(C)OC(=O)N1CCC(NC(=O)c2ccc3[nH]c4c(c3c2)CN(Cc2ccc(C(N)=O)cc2)CC4)CC1 [Compound 2-43]              > 100 µM

# next compound below
Which EC50 value belongs to NC(=O)c1ccc(CN2CCC(NC(=O)c3ccc4[nH]c5c(c4c3)CN(Cc3ccc(C(F)(F)F)cc3)CC5)CC2)cc1 [Compound 2-52] ?
1 to 5 µM

====

biological target: AMPK; assay: AMPK activation, enzyme-linked immunosorbent assay; format: biochemical; conditions: Table 8, compounds of Table 1
measurement_name: EC50

Requested read-out: EC50. Entry: O=C(NC1CCN(Cc2ccncc2)CC1)c1cc2cc(OC3CCN(Cc4ccc(Cl)cc4)CC3)ccc2o1
100 to 500 nM

Suppose we examine the molecule O=C(NC1CCN(Cc2ccc(F)cc2)CC1)c1cc2ccc(OC3CCN(c4ccc(C(F)(F)F)cc4)CC3)cc2o1 ; what EC50 value has been reported?
> 10000 nM

Please report the recorded EC50 for O=C(N[C@@H]1CCN(C(=O)c2ccncc2)C1)c1cc2cc(OC3CCN(c4ccc(C(F)(F)F)cc4)CC3)ccc2o1 .
1000 to 5000 nM

Using the record for O=C(NC1CCN(Cc2ccncc2)CC1)c1ccc(OC2CCN(c3ccc(C(F)(F)F)cc3)CC2)cn1 , report its EC50.
< 100 nM

====

The following compounds are listed with their measured EC50 values.
biological target: AMPK; assay: AMPK activation, enzyme-linked immunosorbent assay; format: biochemical; details: Table 8, compounds of Table 1

Recorded results for 5 compounds are shown here.
> print(dat)
                                   compound  recorded.measurement
1  CN(C(=O)c1cc2cc(OC3CCN(c4ccc(C(F)(F)F)cc4)CC3)ccc2o1)C1CCNCC1 [Compound 1-103]             1 to 5 µM
2  N#Cc1ccc(CN2CCC(NC3CCc4cc(OC5CCN(c6ccc(C(F)(F)F)cc6)CC5)ccc43)CC2)cc1 (centres unmarked) [Compound 1-160]              < 0.1 µM
3  COC(=O)c1ccc(CN2CCC(NC(=O)c3ccc(OC4CCN(c5ccc(C(F)(F)F)cc5)CC4)nc3)CC2)cc1 [Compound 1-45]               > 10 µM
4  O=C(NC1CCN(Cc2ccccc2)CC1)c1cc2cc(OC3CCN(Cc4cccc(C(F)(F)F)c4)CC3)ccc2o1 [Compound 1-73]           0.5 to 1 µM
5  O=C(N[C@@H]1CCNC1)c1cc2cc(OC3CCN(c4ccc(C(F)(F)F)cc4)CC3)ccc2o1 [Compound 1-121]               > 10 µM

For CC(C)(C)OC(=O)N1CCC(NC2CCc3cc(OC4CCN(c5ccc(C(F)(F)F)cc5)CC4)ccc32)CC1 (centres unmarked) [Compound 1-156] , what is its reported EC50?
0.1 to 0.5 µM

Can you look up the measured EC50 of O=C(NC1CCN(Cc2cccnc2)CC1)c1sc2cc(OC3CCN(c4ccc(C(F)(F)F)cc4)CC3)ccc2c1Cl [Compound 1-152] for me?
< 0.1 µM

Can you look up the measured EC50 of N#Cc1ccc(CN2CCC(NC(=O)c3ccc(OC4CCN(c5ccc(C(F)(F)F)cc5)CC4)cn3)CC2)cc1 [Compound 1-4] for me?
< 0.1 µM

====

target: AMPK; assay: AMPK activation, enzyme-linked immunosorbent assay; type: biochemical; conditions: Table 14, compounds of Table 7
pEC50: −log10 of the molar value.
Below, each entry is listed alongside its reported pEC50.

> print(dat)
                                   molecule  tested.on  recorded.measurement
1  CS(=O)(=O)c1ccc(C(=O)C2CCN(C(=O)c3ccc(C(=O)NC4CCN(Cc5ccc(OC(F)(F)F)cc5)C[C@H]4F)cn3)CC2)cc1 (stereo partly drawn)       AMPK          5.00 to 6.00
2  N#Cc1ccc(CN2CC[C@@H](NC(=O)c3ccc(C(=O)N4CCC(Oc5ccc(S(=O)(=O)C(F)(F)F)cc5)CC4)nc3)[C@H](F)C2)cc1 (relative stereo)       AMPK                > 6.00

As a next step, examine the molecule that follows.
So what pEC50 did Cc1cc(OC2CCN(C(=O)c3ccc(C(=O)NC4CCN(Cc5ccc(OC(F)(F)F)cc5)CC4)cn3)CC2)ccc1S(C)(=O)=O get with AMPK?
5.00 to 6.00

====

biological target: AMPK; experiment: AMPK activation, enzyme-linked immunosorbent assay; assay type: biochemical; details: Table 12, compounds of Table 5
measurement_name: EC50

> print(dat)
                                        smi  measurement.name  recorded.measurement
1  CC(C)(C)OC(=O)NCCCNC(=O)c1ccc(OC2CCN(Cc3ccc(C(F)(F)F)cc3)CC2)cc1              EC50             < 1000 nM
2  O=C(NC1CCN(C(=O)c2ccc(F)cc2)CC1)c1ccc(OC2CCN(c3ccc(C(F)(F)F)cc3)CC2)c(F)c1              EC50             < 1000 nM
3  O=C(NC1CCN(Cc2ccccc2)CC1)c1ccc(OC2CCN(Cc3ccncc3)CC2)c(F)c1              EC50             < 1000 nM
4  O=C(NC1CCN(Cc2ccccc2)CC1)c1ccc(OC2CCN(Cc3ccc(Cl)c(Cl)c3)CC2)c(F)c1              EC50             < 1000 nM
5  O=C(NCCCN1CCOCC1)c1ccc(OC2CCN(Cc3ccc(Cl)cc3)CC2)cc1              EC50      1000 to 10000 nM

Consider the molecule CC(C)(C)OC(=O)N1CCC(Oc2ccc(C(=O)NC3CCN(Cc4ccccc4)CC3)cc2Cl)CC1 and give its measured EC50.
1000 to 10000 nM

What does the data say about its EC50? Entry: N#Cc1ccc(CN2CCC(NC(=O)c3cccc(OC4CCN(Cc5cnn(-c6ccc(F)cc6)c5)CC4)c3)CC2)cc1
< 1000 nM

What EC50 value was documented for this molecule, CC(C)(C)c1ccc(CN2CCC(Oc3ccc(C(=O)NC4CCN(c5ccccc5)CC4)cc3F)CC2)cc1 ?
< 1000 nM

Query: EC50; subject: COc1ccc(CN2CCC(NC(=O)c3cccc(OC4CCN(Cc5cnn(-c6ccccn6)c5)CC4)c3)CC2)cc1
1000 to 10000 nM

Given the molecule O=C(NC1CCN(Cc2ccccc2)CC1)c1cccc(OC2CCN(c3ccccn3)CC2)c1 , what is its reported EC50?
< 1000 nM

# query: EC50 of entry Cc1ccc(CN2CCC(Oc3ccc(C(=O)NCCCN4CCOCC4)cc3)CC2)cc1
10000 to 20000 nM

Field request: EC50 | item: O=C(NC1CCN(Cc2ccccc2)CC1)c1ccc(OC2CCN(Cc3ccc(OC(F)(F)F)cc3)CC2)c(F)c1
< 1000 nM

Query: EC50; subject: N#Cc1ccc(N2CCC(Oc3ccc(C(=O)NC4CCN(Cc5ccc(Cl)cc5)CC4)cc3F)CC2)cc1
< 1000 nM

Requested field: EC50. Item: O=C(NC1CCN(Cc2ccc(Cl)cc2)CC1)c1ccc(OC2CCN(Cc3ccc(F)c(F)c3)CC2)c(F)c1
< 1000 nM

Request the reported EC50 associated with Cc1ccc(CN2CCC(Oc3ccc(C(=O)NC4CCN(Cc5ccc(Cl)cc5)CC4)cc3F)CC2)cc1
< 1000 nM

What value of EC50 has been reported for the following molecule? CC(C)(C)C(=O)N1CCC(NC(=O)c2ccc(OC3CCN(c4ccc(C(F)(F)F)cc4)CC3)c(F)c2)CC1
< 1000 nM

====

target: AMPK; assay: AMPK activation, enzyme-linked immunosorbent assay; assay type: biochemical; details: Table 13, compounds of Table 6
pEC50: −log10 of the molar value.
measurement_name: pEC50

Use these answered entries as a reference point.
> print(dat)
                                   compound  recorded.measurement
1  COc1ccc(CN2CCC(NC(=O)c3cc4cc(C(=O)N5CCN(Cc6cccc(S(C)(=O)=O)c6)CC5)ccc4n3C)CC2)cc1F [Compound 6-142]                > 7.00
2  N#Cc1ccc(CN2CCC(NC(=O)c3cc4cc(NC(=O)c5ccc(Oc6ccc(C#N)cn6)cc5)ccc4o3)CC2)cc1 [Compound 6-71]          6.00 to 7.00

Shift focus to the following entry.
Query the reported pEC50 for AMPK; item: N#Cc1ccc(CN2CCC(NC(=O)c3cc4cc(CN5CCC(Oc6ccc(C#N)cc6)CC5)ccc4o3)CC2)cc1 [Compound 6-14]
> 7.00
